meta.source: the supplement of paper PMC9170038

System: MS2 coat protein
Assay: apparent KD of MS2 coat protein; higher = weaker reporter binding
Settings: Eterna round: R107; input ligand: arginine 13.2 mM
Recorded apparent KD of MS2 coat protein by entry
measuredMetric: apparent KD of MS2 coat protein

INSERT INTO measurements (residues, valuemeasured) VALUES
  ('UAUCGUCAGACGGCCGCCACUAGAACAUGAGGAUCACCCAUGUACUAGUGGCAUACCUCAUGAACUAGGACCGGGUCUGACGAAU [(Trp1)-(Ms2)-(T)''-(M)''-(Trp2)_Design10]', '10.2 nM'),
  ('ACCGCAUCCGUAUAGGAUGCGGCCCAUGAAGGAGCGUGGGAAACCACAGGUAGGUCGCAUGACAUGAGGAUCACCCAUGUUUAUU [Matrix]', '27.8 nM'),
  ('GCAACAUGAGGAUCACCCAUGUUUACUGAAGGAGCGAGACAGAACUCAGGUAGGUCGCAGACGGCGGAAUCGCCGACGACAUGGG [Exclusion Arginine A GF24]', '19.6 nM');
